# system.tested: T1, bacterially produced human IL-6 (human, UniProt P05231 30-212)
# T1 construct: also called bactIL-6; prokaryotic IL-6
# assay.details: SPR; periplasmic fraction; against parental 29B11
quantity.measured: fold improvement kd (fold)

INSERT INTO assay_data (binder, val) VALUES
  ('Fab 55C1 (Fab, V domains shown, VL-shuffled Fab of 29B11, periplasmic fraction; also called 55C1a) VH: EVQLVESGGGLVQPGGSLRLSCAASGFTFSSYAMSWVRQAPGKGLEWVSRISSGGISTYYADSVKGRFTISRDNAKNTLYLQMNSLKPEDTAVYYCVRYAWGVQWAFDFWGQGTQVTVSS VL: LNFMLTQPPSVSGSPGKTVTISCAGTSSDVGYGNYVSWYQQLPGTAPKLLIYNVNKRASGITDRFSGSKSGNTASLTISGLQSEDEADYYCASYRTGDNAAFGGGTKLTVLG', 1.78);
